Tested on: Porcine alveolar macrophages (PAMs)
test protocol: CCK-8 cytotoxicity assay in PAM cells
Assay type: cell-based
assay setup: PAM cells, 48 h; read-out: IC50 (cytotoxicity)
pIC50: −log10 of the molar value.

- molecule: "C[C@H](CC[C@@H](O[C@@H]1O[C@H](CO[C@@H]2O[C@H](CO)[C@@H](O)[C@H](O)[C@H]2O)[C@@H](O)[C@H](O)[C@H]1O[C@@H]1O[C@H](CO)[C@@H](O)[C@H](O)[C@H]1O)C(C)(C)O)[C@H]1CC[C@@]2(C)[C@@H]3CC=C4[C@@H](CC[C@H](O[C@@H]5O[C@H](CO[C@@H]6O[C@H](CO)[C@@H](O)[C@H](O)[C@H]6O)[C@@H](O)[C@H](O)[C@H]5O)C4(C)C)[C@]3(C)[C@H](O)C[C@]12C [MV, Mogroside V]"
  pIC50: 3.22

* * *

Test system: Marc-145 cells
test protocol: CCK-8 cytotoxicity assay in Marc-145 cells
Assay type: cell-based
assay setup: Marc-145 cells, 48 h
attribute measured: IC50 (µM)

- compound: "C[C@H](CC[C@@H](O[C@@H]1O[C@H](CO[C@@H]2O[C@H](CO)[C@@H](O)[C@H](O)[C@H]2O)[C@@H](O)[C@H](O)[C@H]1O[C@@H]1O[C@H](CO)[C@@H](O)[C@H](O)[C@H]1O)C(C)(C)O)[C@H]1CC[C@@]2(C)[C@@H]3CC=C4[C@@H](CC[C@H](O[C@@H]5O[C@H](CO[C@@H]6O[C@H](CO)[C@@H](O)[C@H](O)[C@H]6O)[C@@H](O)[C@H](O)[C@H]5O)C4(C)C)[C@]3(C)[C@H](O)C[C@]12C [MV, Mogroside V]"
  test target: "Marc-145 cells"
  numeric result: 756

* * *

Test system: Marc-145 cells
test protocol: CCK-8 cytotoxicity assay in Marc-145 cells
Assay type: cell-based
assay setup: Marc-145 cells, 72 h
pIC50: −log10 of the molar value.

- compound: "C[C@H](CC[C@@H](O[C@@H]1O[C@H](CO[C@@H]2O[C@H](CO)[C@@H](O)[C@H](O)[C@H]2O)[C@@H](O)[C@H](O)[C@H]1O[C@@H]1O[C@H](CO)[C@@H](O)[C@H](O)[C@H]1O)C(C)(C)O)[C@H]1CC[C@@]2(C)[C@@H]3CC=C4[C@@H](CC[C@H](O[C@@H]5O[C@H](CO[C@@H]6O[C@H](CO)[C@@H](O)[C@H](O)[C@H]6O)[C@@H](O)[C@H](O)[C@H]5O)C4(C)C)[C@]3(C)[C@H](O)C[C@]12C [MV, Mogroside V]"
  pIC50: 3.12

* * *

System: Porcine alveolar macrophages (PAMs)
test protocol: CCK-8 cytotoxicity assay in PAM cells
Assay type: cell-based
assay setup: PAM cells, 72 h; read-out: IC50 (cytotoxicity)
attribute measured: IC50 (µM)

- compound: "C[C@H](CC[C@@H](O[C@@H]1O[C@H](CO[C@@H]2O[C@H](CO)[C@@H](O)[C@H](O)[C@H]2O)[C@@H](O)[C@H](O)[C@H]1O[C@@H]1O[C@H](CO)[C@@H](O)[C@H](O)[C@H]1O)C(C)(C)O)[C@H]1CC[C@@]2(C)[C@@H]3CC=C4[C@@H](CC[C@H](O[C@@H]5O[C@H](CO[C@@H]6O[C@H](CO)[C@@H](O)[C@H](O)[C@H]6O)[C@@H](O)[C@H](O)[C@H]5O)C4(C)C)[C@]3(C)[C@H](O)C[C@]12C [MV, Mogroside V]"
  attribute measured: "IC50"
  numeric result: 704

* * *

Tested on: Porcine alveolar macrophages (PAMs)
test protocol: CCK-8 cytotoxicity assay in PAM cells
Type: cell-based
assay setup: PAM cells, 24 h; read-out: IC50 (cytotoxicity)
Description: The cytotoxicity of MV was assessed using the Cell Counting Kit-8 (CCK-8) assay to determine cell viability. […] Absorbance was measured at 450 nm using a microplate reader. Cell viability (%) was calculated using the formula:Cell viability (%) = [OD (sample) – OD (blank)/OD (control) – OD (blank)] × 100%, where OD (blank) represents the background absorbance of cell-free medium, and OD (control) denotes untreated cells. […]

- molecule: "C[C@H](CC[C@@H](O[C@@H]1O[C@H](CO[C@@H]2O[C@H](CO)[C@@H](O)[C@H](O)[C@H]2O)[C@@H](O)[C@H](O)[C@H]1O[C@@H]1O[C@H](CO)[C@@H](O)[C@H](O)[C@H]1O)C(C)(C)O)[C@H]1CC[C@@]2(C)[C@@H]3CC=C4[C@@H](CC[C@H](O[C@@H]5O[C@H](CO[C@@H]6O[C@H](CO)[C@@H](O)[C@H](O)[C@H]6O)[C@@H](O)[C@H](O)[C@H]5O)C4(C)C)[C@]3(C)[C@H](O)C[C@]12C [MV, Mogroside V]"
  IC50, µM: 577

* * *

Test system: Marc-145 cells
test protocol: CCK-8 cytotoxicity assay in Marc-145 cells
Assay type: cell-based
assay setup: Marc-145 cells, 96 h
pIC50: −log10 of the molar value.

- compound: "C[C@H](CC[C@@H](O[C@@H]1O[C@H](CO[C@@H]2O[C@H](CO)[C@@H](O)[C@H](O)[C@H]2O)[C@@H](O)[C@H](O)[C@H]1O[C@@H]1O[C@H](CO)[C@@H](O)[C@H](O)[C@H]1O)C(C)(C)O)[C@H]1CC[C@@]2(C)[C@@H]3CC=C4[C@@H](CC[C@H](O[C@@H]5O[C@H](CO[C@@H]6O[C@H](CO)[C@@H](O)[C@H](O)[C@H]6O)[C@@H](O)[C@H](O)[C@H]5O)C4(C)C)[C@]3(C)[C@H](O)C[C@]12C [MV, Mogroside V]"
  test target: "Marc-145 cells"
  pIC50: 3.12

* * *

Test system: Porcine alveolar macrophages (PAMs)
test protocol: CCK-8 cytotoxicity assay in PAM cells
Format: cell-based
assay setup: PAM cells, 96 h; read-out: IC50 (cytotoxicity)

- compound: "C[C@H](CC[C@@H](O[C@@H]1O[C@H](CO[C@@H]2O[C@H](CO)[C@@H](O)[C@H](O)[C@H]2O)[C@@H](O)[C@H](O)[C@H]1O[C@@H]1O[C@H](CO)[C@@H](O)[C@H](O)[C@H]1O)C(C)(C)O)[C@H]1CC[C@@]2(C)[C@@H]3CC=C4[C@@H](CC[C@H](O[C@@H]5O[C@H](CO[C@@H]6O[C@H](CO)[C@@H](O)[C@H](O)[C@H]6O)[C@@H](O)[C@H](O)[C@H]5O)C4(C)C)[C@]3(C)[C@H](O)C[C@]12C [MV, Mogroside V]"
  IC50 (µM): 582
